- System: A. baumannii Ab-ARA-EcPore (hyperporinated)
- ASSAY METHOD TEXT: microbe, parasite or virus in culture
- Format: cell-based
- MEASUREMENT CONTEXT: Acinetobacter baumannii; Ab-ARA-EcPore; at least three independent measurements; read-out: MIC
Bridge positions count the residues as written; N and C are the ends. Square brackets hold non-standard residues; d marks the D form. Peptide text beside a SMILES is read from it. * marks the point of attachment. Ileψ(thiazoline)Cys = CC[C@H](C)[C@H](N)C1=N[C@H](C(=O)*)CS1; dOrn = NCCC[C@@H](N)C(=O)O
Quick reference: MIC of the listed items.
Enter your answer as a number in µg/mL; do not include the unit.

C[C@H]1COc2c(N3CCN(C)CC3)c(F)cc3c(=O)c(C(=O)O)cn1c23 [Levofloxacin]: 0.125
CC[C@H](C)[C@H](N)C1=N[C@H](C(=O)N[C@@H](CC(C)C)C(=O)N[C@H](CCC(=O)O)C(=O)N[C@H](C(=O)N[C@H]2CCCCNC(=O)[C@H](CC(N)=O)NC(=O)[C@@H](CC(=O)O)NC(=O)[C@H](Cc3cnc[nH]3)NC(=O)[C@@H](Cc3ccccc3)NC(=O)[C@H]([C@@H](C)CC)NC(=O)[C@@H](CCCN)NC2=O)[C@@H](C)CC)CS1 [Bacitracin] ({Ileψ(thiazoline)Cys}-L[dE]IK[dOrn]I[dF]H[dD]N; lactam 4-C): 32

Task: Quick one: give measured MIC for CN(C)[C@@H]1C(O)=C(C(N)=O)C(=O)[C@@]2(O)C(O)=C3C(=O)c4c(O)cccc4[C@@](C)(O)[C@H]3C[C@@H]12 [Tetracycline]
Output: 0.031

Task: Quick one: give measured MIC for C[C@H]1c2cccc(O)c2C(=O)C2=C(O)[C@]3(O)C(=O)C(C(N)=O)=C(O)[C@@H](N(C)C)[C@@H]3[C@@H](O)[C@@H]21 [Doxycycline]
Output: 0.02

Reference for the values: patent US11021521B2
